Assignment: determine reported inhibition for the given molecules.
TARGET_OR_SYSTEM: Serine protease HTRA1 (Homo sapiens)
ASSAY_PROTOCOL: inhibition of human HTRA1 peptidase – biochemical, fluorescence polarization, HTS, primary screen (AID 504803);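 note: 0% = enzyme with DMSO and 100% = wells lacking enzyme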
ASSAY_CONTEXT: recombinant HTRA1, FP-rhodamine activity-based probe, at 5.96 µM, active compounds read high
The whole screen tested about 340,000 compounds, of which about 1,700 (0.5%) were called active. Many of the other results were omitted from the sample, so actives are more common in it than they were.
Numbers only, in %.

INSERT INTO results (molecule, target_or_system, result_number) VALUES
  ('CCOC(=O)NNc1cc(C(F)(F)F)ccn1', 'Serine protease HTRA1 (Homo sapiens)', -0.2),
  ('O=C1[C@H]2[C@@H](c3ccc(C(F)(F)F)cc3)N[C@]3(CCCN(Cc4ccc(Br)cc4)C3=O)[C@H]2C(=O)N1Cc1ccccc1', 'Serine protease HTRA1 (Homo sapiens)', -35.1),
  ('COc1ccc2nc(-c3ccccn3)ccc2c1', 'Serine protease HTRA1 (Homo sapiens)', 4.04),
  ('O=C1c2ccccc2C(=O)c2c1cccc2N1CCN(CCO)CC1', 'Serine protease HTRA1 (Homo sapiens)', 9.89),
  ('Cc1ccc(-c2ccc(CN3C(C(C)C)C(=O)N(Cc4cn(CCC5OCCO5)nn4)CCS3(=O)=O)cc2)cc1 (stereo not drawn)', 'Serine protease HTRA1 (Homo sapiens)', -29.6);

Below are 8 molecules. Give each one its inhibition.
1. O=C(CN1CCN(Cc2ccccc2)CC1)NC(c1ccccc1)c1ccccc1
2. CCN(CC)c1ccc(/C=N/Nc2nc(C)cc(C)n2)c(O)c1
3. COc1ccc(NCCc2ccccn2)cc1
4. CCOC(=O)C[C@H]1c2ccc(C(F)(F)F)cc2S(=O)(=O)N1c1ccccc1
5. Cc1cc([N+](=O)[O-])ccc1NS(=O)(=O)c1ccccc1
6. CC(=O)Nc1ccc(S(=O)(=O)Nc2ccc(N3CCCCC3)cc2)cc1
7. Cc1cccc(N2CCN(C(=O)c3ccccc3NC(=O)C3CCCCC3C(=O)O)CC2)c1 (stereo not drawn)
8. CCOC(=O)C1Nc2ccc(C(F)(F)F)cc2C2C=CCC12 (stereo not drawn)

Solution:
[-2.99, 63.8, 3.17, -13.4, -0.9, 52.4, 2.87, 41.7]

* * *

TARGET_OR_SYSTEM: Serine protease HTRA1 (Homo sapiens)
ASSAY_PROTOCOL: inhibition of human HTRA1 peptidase – biochemical, fluorescence polarization, HTS, primary screen (AID 504803);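 note: 0% = enzyme with DMSO and 100% = wells lacking enzyme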
ASSAY_CONTEXT: recombinant HTRA1, FP-rhodamine activity-based probe, at 5.96 µM, active compounds read high
The whole screen tested about 340,000 compounds, of which about 1,700 (0.5%) were called active. Shown is part of a subset that was picked to be rich in actives.
For each record, write down the corresponding inhibition.
One number for each entry, in %.

Solved cases (4 shown):
INSERT INTO measurements (compound, target_or_system, output_unit, result_number) VALUES
  ('CCCc1cc(-c2n[nH]c(=S)n2Cc2ccccc2)cs1', 'Serine protease HTRA1 (Homo sapiens)', '%', -3.06),
  ('COc1cc(NC(=O)C2=C(C)OCCS2)c(Cl)cc1C(=O)NCCCN1CCCC(C)C1 (configuration not stated)', 'Serine protease HTRA1 (Homo sapiens)', '%', -6.48),
  ('NNc1cccc(C=Cc2ccccc2)cc1=O', 'Serine protease HTRA1 (Homo sapiens)', '%', 61.4),
  ('c1ccc2[nH]c(-c3nc4ccccc4[nH]3)nc2c1', 'Serine protease HTRA1 (Homo sapiens)', '%', 80.8);

For every item in the list below, what is its measured inhibition?
1. COc1cc(C=NC2CCCCC2)ccc1O
2. CCCn1c(C)cc(-c2csc(NC(=O)CCc3nc4ccccc4c(=O)[nH]3)n2)c1C
3. O=C(NCCS(=O)(=O)N1CCN(c2ccccc2)CC1)c1cc(=O)c2ccccc2o1
4. COc1cccc(OC)c1C(=O)Nc1nnc(C(C)C)s1
5. Oc1ccc(C2Nc3cccc4cccc(c34)N2)cc1

Solution:
1. 0.85
2. -3.91
3. 1.65
4. -2.63
5. 22.9
